Data origin, for the record: ChEMBL document CHEMBL3407367

procedure.details: Solubility of the compound in PBS at pH 7.4 after 24 to 48 hrs by spectrophotometry
Type: physicochemical
Positions of bridges follow the written chain, without caps; N, C: chain ends. Non-standard residues stand in square brackets, D forms with d. Residues, ends and D or L forms follow the SMILES beside them. 1Nal = N[C@@H](Cc1cccc2ccccc12)C(=O)O
result.type: solubility (µg/mL)
The answer is to be given in µg/mL; state only the numeric part.

Requested read-out: solubility. Entry: CC[C@H](C)[C@H](NC(C)=O)C(=O)N[C@H]1CSSC[C@@H](C(=O)N[C@H](C(N)=O)[C@@H](C)O)NC(=O)[C@H](CCCNC(=N)N)NC(=O)[C@H](Cc2cnc[nH]2)NC(=O)[C@H](Cc2cccc3ccccc23)NC(=O)CNC(=O)[C@H](Cc2c[nH]c3ccccc23)NC(=O)[C@H](CC(=O)O)NC(=O)[C@H](CCC(N)=O)NC(=O)[C@H](Cc2c[nH]c3ccccc23)NC(=O)[C@H](C(C)C)NC1=O (Ac-ICVWQDWG[1Nal]HRCT-NH2; disulfide 2-12)
100
